Reference source: patent US6124323A

Please provide measured IC50 for the entries that follow.
molecular target: NMDA receptor subunits 1A/2C (Rattus norvegicus, UniProt P35439+Q00961); construct: expressed in transfected cells; host or cells: Xenopus laevis oocytes (cRNA injection; clones from Dr. P. H. Seeburg); assay: Electrophysiological assay at NMDA receptor subunits expressed in Xenopus oocytes, 1A/2C; format: cell-based; settings: Xenopus oocytes; glutamate 100 μm and glycine 1-100 μm; read-out: Subunits IC50, 1A/2C
Sequence (Q00961 20-1237, other chains not shown): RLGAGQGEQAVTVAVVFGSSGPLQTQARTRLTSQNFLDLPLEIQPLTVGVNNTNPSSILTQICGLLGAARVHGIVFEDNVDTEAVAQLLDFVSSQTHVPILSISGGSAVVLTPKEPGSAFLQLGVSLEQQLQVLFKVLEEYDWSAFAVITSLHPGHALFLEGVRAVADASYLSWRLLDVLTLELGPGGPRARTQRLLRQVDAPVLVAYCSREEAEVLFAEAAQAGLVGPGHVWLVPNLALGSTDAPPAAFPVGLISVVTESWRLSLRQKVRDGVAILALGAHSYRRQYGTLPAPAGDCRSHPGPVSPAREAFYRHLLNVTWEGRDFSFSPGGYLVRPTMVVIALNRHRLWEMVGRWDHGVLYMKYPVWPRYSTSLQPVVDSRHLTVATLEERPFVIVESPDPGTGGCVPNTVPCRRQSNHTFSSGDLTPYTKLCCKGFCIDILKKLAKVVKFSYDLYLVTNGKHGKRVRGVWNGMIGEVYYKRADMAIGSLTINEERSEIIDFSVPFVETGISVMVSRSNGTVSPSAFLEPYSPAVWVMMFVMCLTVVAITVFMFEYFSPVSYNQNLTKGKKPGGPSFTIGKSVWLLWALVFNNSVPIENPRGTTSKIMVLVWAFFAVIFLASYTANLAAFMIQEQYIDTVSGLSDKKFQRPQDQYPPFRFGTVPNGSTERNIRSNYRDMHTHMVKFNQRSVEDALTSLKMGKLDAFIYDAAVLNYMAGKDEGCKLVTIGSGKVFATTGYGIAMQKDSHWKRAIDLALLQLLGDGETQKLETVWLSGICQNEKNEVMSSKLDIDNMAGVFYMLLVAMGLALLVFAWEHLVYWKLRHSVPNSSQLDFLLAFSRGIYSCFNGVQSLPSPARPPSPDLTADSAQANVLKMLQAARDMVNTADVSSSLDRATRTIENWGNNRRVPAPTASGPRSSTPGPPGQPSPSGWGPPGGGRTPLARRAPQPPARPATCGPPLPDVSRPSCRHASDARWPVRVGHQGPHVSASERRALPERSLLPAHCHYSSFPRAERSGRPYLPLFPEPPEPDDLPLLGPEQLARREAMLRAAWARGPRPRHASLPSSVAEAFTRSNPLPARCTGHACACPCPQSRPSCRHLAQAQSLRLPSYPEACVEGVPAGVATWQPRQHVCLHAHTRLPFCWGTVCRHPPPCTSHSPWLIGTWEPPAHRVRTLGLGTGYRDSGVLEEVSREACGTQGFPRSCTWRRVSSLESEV
Counter-ions that a name gives are not always drawn.
Express it in µM; write the number only.

Prompt: Which measured IC50 value corresponds to Oc1ccc(OCCN2CCC(Cc3ccc(F)c(F)c3)CC2)cc1 [Ex. 122, hydrochloride] ?
Response: 280

Prompt: One more compound: Cc1ccc(CC2(O)CCN(CCOc3ccc(O)cc3)CC2)cc1.Cl [Ex. 154, hydrochloride]
Response: 230

Prompt: Ok, now S=c1[nH]c2ccc(OCCN3CCC(Cc4ccccc4)CC3)cc2[nH]1 [Ex. 171]
Response: 170

###

Biological target: NMDA receptor subunits 1A/2C (Rattus norvegicus, UniProt P35439+Q00961)
Construct: expressed in transfected cells; host or cells: Xenopus laevis oocytes (cRNA injection; clones from Dr. P. H. Seeburg)
Test: Electrophysiological assay at NMDA receptor subunits expressed in Xenopus oocytes, 1A/2C
Type: cell-based
Details: Xenopus oocytes; glutamate 100 μm and glycine 1-100 μm; read-out: Subunits IC50, 1A/2C
Source text: Many of the properties of native NMDA receptors are seen in recombinant homomeric NR1 receptors. These properties are altered by the NR2 subunits. Recombinant NMDA receptors expressed in Xenopus oocytes have been studied by voltage-clamp recording, as has developmental and regional expression of the mRNAs encoding NMDA receptor subunits. Electrophysiological assays were utilized to characterize the actions of compounds at NMDA receptors expressed in Xenopus oocytes. […]
pIC50: −log10 of the molar value. Counter-ions that a name gives are not always drawn.
Give pIC50 for every item shown.

Prompt: Return reported pIC50; argument: `Nc1cccc(OCCN2CCC(Cc3ccccc3)CC2)c1`
Response: < 4.00

Prompt: Next compound: `Nc1ccccc1OCCN1CCC(Cc2ccccc2)CC1`
Response: < 4.00

Prompt: # repeat for Cl.Oc1ccc(OCCN2CCC(Cc3ccc(F)cc3)CC2)cc1F [Ex. 150, hydrochloride]
Response: < 3.52

Prompt: What would you report for Clc1ccc(CC2CCN(CCOc3ccc(Cl)cc3)CC2)cc1 [Ex. 26, hydrochloride] ?
Response: < 4.00

Prompt: Could you do the same for Cc1ccc(CC2CCN(CCOc3ccc(O)cc3)CC2)c(F)c1 [Ex. 134, hydrochloride] , please?
Response: 3.85

Prompt: Same thing, different compound: Oc1ccc(OCCN2CCC(Cc3ccccc3F)CC2)cc1 [Ex. 128, hydrochloride]
Response: < 3.52

Prompt: How about this compound: O=[N+]([O-])c1ccc(CC2CCN(CCOc3ccc(F)cc3)CC2)cc1 [Ex. 36, hydrobromide]
Response: < 4.00

Prompt: Same for Cc1cc(OCCN2CCC(Cc3ccc(F)cc3)CC2)ccc1O [Ex. 152, hydrochloride]
Response: 3.70

Prompt: Now give it for `c1ccc(OCCCN2CCC(c3ccccc3)CC2)cc1` too.
Response: < 4.00

###

Biological target: NMDA receptor subunits 1A/2B (Rattus norvegicus, UniProt P35439+Q00960)
Construct: expressed in transfected cells; host or cells: Xenopus laevis oocytes (cRNA injection; clones from Dr. P. H. Seeburg)
Sequence (Q00960 27-1482, other chains not shown): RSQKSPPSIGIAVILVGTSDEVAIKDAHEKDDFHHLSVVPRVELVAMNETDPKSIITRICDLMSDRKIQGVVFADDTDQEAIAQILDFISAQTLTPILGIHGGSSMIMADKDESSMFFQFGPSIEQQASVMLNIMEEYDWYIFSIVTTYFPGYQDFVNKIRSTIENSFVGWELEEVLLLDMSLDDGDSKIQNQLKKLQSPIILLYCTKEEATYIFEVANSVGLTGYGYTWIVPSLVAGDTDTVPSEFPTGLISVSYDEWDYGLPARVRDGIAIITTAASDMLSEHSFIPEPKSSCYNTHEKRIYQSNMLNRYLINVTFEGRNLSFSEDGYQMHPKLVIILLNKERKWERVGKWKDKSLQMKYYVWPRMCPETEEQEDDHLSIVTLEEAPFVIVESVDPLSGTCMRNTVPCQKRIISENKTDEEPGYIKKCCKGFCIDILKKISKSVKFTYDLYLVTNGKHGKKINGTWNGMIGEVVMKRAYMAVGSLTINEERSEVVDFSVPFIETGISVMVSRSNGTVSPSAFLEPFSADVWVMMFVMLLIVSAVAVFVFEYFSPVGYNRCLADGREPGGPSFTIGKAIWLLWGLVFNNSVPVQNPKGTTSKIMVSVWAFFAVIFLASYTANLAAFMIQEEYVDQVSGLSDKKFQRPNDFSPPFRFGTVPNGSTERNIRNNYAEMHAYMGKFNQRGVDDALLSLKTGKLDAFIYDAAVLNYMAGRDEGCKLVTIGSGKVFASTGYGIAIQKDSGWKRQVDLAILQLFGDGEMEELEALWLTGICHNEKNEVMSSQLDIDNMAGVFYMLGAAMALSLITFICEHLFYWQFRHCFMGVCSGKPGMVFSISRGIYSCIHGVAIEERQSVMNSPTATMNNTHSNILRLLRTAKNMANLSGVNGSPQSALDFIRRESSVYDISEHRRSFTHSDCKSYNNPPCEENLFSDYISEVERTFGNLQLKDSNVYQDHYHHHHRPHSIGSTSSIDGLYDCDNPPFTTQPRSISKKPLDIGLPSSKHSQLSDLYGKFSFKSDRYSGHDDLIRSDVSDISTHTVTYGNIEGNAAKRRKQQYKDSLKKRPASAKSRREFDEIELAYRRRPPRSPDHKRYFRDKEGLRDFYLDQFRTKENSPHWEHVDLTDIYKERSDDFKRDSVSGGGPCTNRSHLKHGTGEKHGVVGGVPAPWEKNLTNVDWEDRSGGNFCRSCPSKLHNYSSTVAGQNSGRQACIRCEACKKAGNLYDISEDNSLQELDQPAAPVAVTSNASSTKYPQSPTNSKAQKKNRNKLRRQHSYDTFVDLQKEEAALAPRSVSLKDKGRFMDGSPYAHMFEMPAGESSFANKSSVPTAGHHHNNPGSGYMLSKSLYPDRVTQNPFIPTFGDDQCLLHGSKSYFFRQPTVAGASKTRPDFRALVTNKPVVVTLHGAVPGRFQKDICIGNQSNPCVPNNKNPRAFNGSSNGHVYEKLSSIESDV
Experiment: Electrophysiological assay at NMDA receptor subunits expressed in Xenopus oocytes, 1A/2B
Assay type: cell-based
Conditions: Xenopus oocytes; glutamate 100 μm and glycine 1-100 μm; read-out: Subunits IC50, 1A/2B
Description: Many of the properties of native NMDA receptors are seen in recombinant homomeric NR1 receptors. These properties are altered by the NR2 subunits. Recombinant NMDA receptors expressed in Xenopus oocytes have been studied by voltage-clamp recording, as has developmental and regional expression of the mRNAs encoding NMDA receptor subunits. Electrophysiological assays were utilized to characterize the actions of compounds at NMDA receptors expressed in Xenopus oocytes. […]
Structures can show the parent of a compound that is named as a salt.
Answer each item with its documented IC50.
Numeric only. Scale: nM

Prompt: What IC50 value was documented for this compound, Oc1ccc(OCCN2CCC(Cc3ccc(F)c(F)c3)CC2)cc1 [Ex. 122, hydrochloride] ?
Response: 180

Prompt: // repeat for Oc1ccc(OCCN2CCC(O)(Cc3ccc(F)cc3)CC2)cc1 [Ex. 123, hydrochloride] and report
Response: 70

Prompt: Another compound to check: Cl.Oc1ccc(OCCN2CCC(Cc3ccccc3)CC2)cc1 [Ex. 99, hydrochloride]
Response: 30

Prompt: What about `Nc1cccc(OCCN2CCC(Cc3ccccc3)CC2)c1` ?
Response: 500

Prompt: Please do the same for Cc1ccc(CC2CCN(CCOc3ccccc3O)CC2)cc1 [Ex. 161, hydrochloride] as well.
Response: 40

Prompt: Lookup `O=c1[nH]c2ccc(OCCN3CCC(Cc4ccccc4)CC3)cc2[nH]c1=O`
Response: 100

Prompt: Next compound up: `c1ccc(CC2CCN(CCOc3ncnc4ccccc34)CC2)cc1`
Response: 10000

Prompt: Field entry: Br.Br.Nc1ccc(OCCN2CCC(Cc3ccccc3)CC2)cc1 [Ex. 13, dihydrobromide]
Response: 1300

Prompt: Now the same for Cc1ccc(CC2CCN(CCOc3cccc(O)c3)CC2)cc1 [Ex. 160, hydrochloride]
Response: 200

Prompt: What would you report for `COc1cccc(OCCN2CCC(Cc3ccccc3)CC2)c1` ?
Response: 430

Prompt: # iterate: `S=c1[nH]c2ccc(OCCN3CCC(Cc4ccc(Cl)cc4)CC3)cc2[nH]1`
Response: 30

Prompt: Quick one: `O=[N+]([O-])c1cccc(OCCN2CCC(Cc3ccccc3)CC2)c1`
Response: 6000

Prompt: Moving on to the next compound: `Cc1ccc(CC2CCN(CCOc3ccc4cc(O)ccc4c3)CC2)cc1`
Response: 100

Prompt: Record: Oc1ccc(CCN2CCC(Cc3ccccc3)CC2)cc1 [Ex. 108, hydrochloride]
Response: 250

Prompt: Try Oc1ccc(OCCN2CCC(Cc3cccc(F)c3)CC2)cc1 [Ex. 112, hydrochloride] next.
Response: 80

Prompt: How about `O=c1[nH]c2ccc(OCCN3CCC(Cc4ccccc4)CC3)cc2[nH]1` ?
Response: 24

Prompt: Try this compound too: CC(=O)Nc1ccc(OCCN2CCC(Cc3ccccc3)CC2)cc1NC(C)=O [Ex. 71A]
Response: 20000

Prompt: Same thing, different compound: `Cc1ccc(CC2CCN(CCOc3ccc4[nH]c(=S)[nH]c4c3)CC2)cc1`
Response: 30

Prompt: Now this one: COc1ccc(CC2CCN(CCOc3ccc(O)cc3)CC2)cc1 [Ex. 121, hydrochloride]
Response: 50
